experimental_system: Serine/threonine-protein kinase PLK1 (Homo sapiens, UniProt P53350)
Sequence (P53350 whole entry): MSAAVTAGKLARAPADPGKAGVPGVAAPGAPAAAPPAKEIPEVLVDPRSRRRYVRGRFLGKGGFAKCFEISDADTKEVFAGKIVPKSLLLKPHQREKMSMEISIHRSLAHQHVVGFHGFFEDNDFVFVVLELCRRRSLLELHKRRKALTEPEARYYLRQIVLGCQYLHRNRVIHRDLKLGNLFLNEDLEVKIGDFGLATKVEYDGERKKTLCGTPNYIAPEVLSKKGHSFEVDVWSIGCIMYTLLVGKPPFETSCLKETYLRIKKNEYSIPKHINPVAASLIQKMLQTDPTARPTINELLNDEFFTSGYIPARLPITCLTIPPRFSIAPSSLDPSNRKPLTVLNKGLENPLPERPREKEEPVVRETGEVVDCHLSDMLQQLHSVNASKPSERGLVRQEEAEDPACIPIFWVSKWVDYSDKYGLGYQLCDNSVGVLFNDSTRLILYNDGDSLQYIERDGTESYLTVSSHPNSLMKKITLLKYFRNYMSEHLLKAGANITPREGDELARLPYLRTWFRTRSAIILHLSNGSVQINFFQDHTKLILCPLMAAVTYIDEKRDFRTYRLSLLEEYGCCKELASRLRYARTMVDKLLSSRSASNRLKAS
readout_name: Kd (µM)

# compound, numeric_readout
data = [
    ("Cn1cc(C2=C(c3cccc(NCC(O)CO)c3)C(=O)NC2=O)c2cc(F)ccc21 (racemic)", 23),
]

###

experimental_system: Cyclin-dependent kinase 9 (Homo sapiens)
Sequence (P50750 whole entry): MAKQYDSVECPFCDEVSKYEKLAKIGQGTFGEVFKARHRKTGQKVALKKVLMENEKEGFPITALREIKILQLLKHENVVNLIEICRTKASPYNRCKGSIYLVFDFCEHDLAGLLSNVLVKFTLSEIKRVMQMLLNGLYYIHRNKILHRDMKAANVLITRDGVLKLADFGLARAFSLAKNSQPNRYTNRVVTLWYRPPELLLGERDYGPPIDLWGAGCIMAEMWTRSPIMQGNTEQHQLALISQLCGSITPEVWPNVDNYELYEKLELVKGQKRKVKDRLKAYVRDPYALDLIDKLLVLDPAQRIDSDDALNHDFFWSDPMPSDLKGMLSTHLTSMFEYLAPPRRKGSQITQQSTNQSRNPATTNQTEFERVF

# compound, units_symbol, Kd
measured = [
    ("Cn1cc(C2=C(c3cccc(NCC(O)CO)c3)C(=O)NC2=O)c2cc(F)ccc21 (racemic)", "nM", 410),
]

###

experimental_system: Cyclin-dependent kinase 5 (Homo sapiens, UniProt Q00535)
Sequence (Q00535 whole entry): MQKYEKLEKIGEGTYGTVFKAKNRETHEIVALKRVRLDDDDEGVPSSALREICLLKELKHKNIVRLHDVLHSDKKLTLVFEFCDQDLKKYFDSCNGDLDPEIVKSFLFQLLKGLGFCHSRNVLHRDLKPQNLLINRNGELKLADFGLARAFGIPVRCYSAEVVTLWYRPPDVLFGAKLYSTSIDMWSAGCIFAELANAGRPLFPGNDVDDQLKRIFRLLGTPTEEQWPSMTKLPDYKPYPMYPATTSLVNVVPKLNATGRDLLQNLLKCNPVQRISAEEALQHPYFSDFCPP

# compound, units_symbol, Kd
data = [
    ("Cn1cc(C2=C(c3cccc(NCC(O)CO)c3)C(=O)NC2=O)c2cc(F)ccc21 (racemic)", "µM", 6.8),
]

###

experimental_system: Serine/threonine-protein kinase PLK4 (Homo sapiens)
Sequence (O00444 whole entry): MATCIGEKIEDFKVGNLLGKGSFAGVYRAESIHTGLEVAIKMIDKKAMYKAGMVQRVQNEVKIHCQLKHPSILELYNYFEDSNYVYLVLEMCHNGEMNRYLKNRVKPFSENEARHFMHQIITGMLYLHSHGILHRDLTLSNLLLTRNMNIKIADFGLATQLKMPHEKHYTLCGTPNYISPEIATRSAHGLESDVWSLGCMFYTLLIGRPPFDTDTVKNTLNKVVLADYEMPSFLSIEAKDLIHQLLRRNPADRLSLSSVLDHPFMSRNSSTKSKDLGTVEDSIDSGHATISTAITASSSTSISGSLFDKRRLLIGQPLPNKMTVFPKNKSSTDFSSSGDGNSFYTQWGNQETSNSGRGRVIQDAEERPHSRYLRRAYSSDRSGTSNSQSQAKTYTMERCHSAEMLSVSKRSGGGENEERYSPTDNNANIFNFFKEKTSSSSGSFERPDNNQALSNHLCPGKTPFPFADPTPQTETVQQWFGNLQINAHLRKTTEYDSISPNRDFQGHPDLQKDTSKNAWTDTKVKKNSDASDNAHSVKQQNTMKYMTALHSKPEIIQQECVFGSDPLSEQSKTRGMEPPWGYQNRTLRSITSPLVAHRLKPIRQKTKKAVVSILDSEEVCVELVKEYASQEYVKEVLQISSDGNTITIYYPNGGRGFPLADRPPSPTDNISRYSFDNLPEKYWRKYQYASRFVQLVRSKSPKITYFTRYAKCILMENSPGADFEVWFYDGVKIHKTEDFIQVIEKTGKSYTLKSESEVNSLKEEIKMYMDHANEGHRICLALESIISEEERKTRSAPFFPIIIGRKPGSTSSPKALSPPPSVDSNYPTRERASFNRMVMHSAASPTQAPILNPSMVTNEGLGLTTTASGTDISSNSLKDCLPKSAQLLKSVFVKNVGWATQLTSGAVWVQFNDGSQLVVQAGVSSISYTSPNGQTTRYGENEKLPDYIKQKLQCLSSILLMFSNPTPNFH
readout_name: Kd

# molecule, readout_name, result
rows = [
    ("Cn1cc(C2=C(c3cccc(NCC(O)CO)c3)C(=O)NC2=O)c2cc(F)ccc21 (racemic)", "Kd", "320 nM"),
]

###

experimental_system: Glycogen synthase kinase-3 beta (Homo sapiens)
Sequence (P49841 whole entry): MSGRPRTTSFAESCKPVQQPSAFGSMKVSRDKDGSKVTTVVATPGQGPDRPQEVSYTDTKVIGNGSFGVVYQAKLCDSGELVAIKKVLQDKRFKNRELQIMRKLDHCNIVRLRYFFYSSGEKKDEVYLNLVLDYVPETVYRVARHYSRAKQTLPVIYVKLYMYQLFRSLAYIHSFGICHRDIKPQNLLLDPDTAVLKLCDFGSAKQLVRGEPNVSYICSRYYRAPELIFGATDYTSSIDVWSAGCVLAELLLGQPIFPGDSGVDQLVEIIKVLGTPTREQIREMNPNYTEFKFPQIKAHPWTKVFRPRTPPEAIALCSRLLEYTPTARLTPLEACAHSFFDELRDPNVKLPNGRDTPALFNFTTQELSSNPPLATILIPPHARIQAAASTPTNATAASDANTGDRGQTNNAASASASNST
test_details: Inhibition of human recombinant GSK3-beta assessed as [gamma33]ATP transfer to biotinylated CREB-peptide substrate after 1 hr by scintillation counting
pIC50: −log10 of the molar value.
Could you please classify the records by pIC50 using these ranges: lowest: < 7; middle: ≥ 7 and < 8; highest: ≥ 8

# molecule, experimental_system, cat
data = [
    ("Cn1cc(C2=C(c3cccnc3)C(=O)NC2=O)c2ccccc21", "Glycogen synthase kinase-3 beta (Homo sapiens)", "middle"),
    ("Cn1cc(C2=C(c3ccccc3Cl)C(=O)NC2=O)c2ccccc21", "Glycogen synthase kinase-3 beta (Homo sapiens)", "highest"),
    ("Cn1cc(C2=C(N3CCOCC3)C(=O)NC2=O)c2ccccc21", "Glycogen synthase kinase-3 beta (Homo sapiens)", "lowest"),
    ("Cn1cc(C2=C(c3cccc(OCC(O)CO)c3)C(=O)NC2=O)c2cc(F)ccc21 (racemic)", "Glycogen synthase kinase-3 beta (Homo sapiens)", "highest"),
    ("COc1cccc(C2=C(c3cn(C)c4cccc(OC)c34)C(=O)NC2=O)c1", "Glycogen synthase kinase-3 beta (Homo sapiens)", "lowest"),
    ("COc1cccc(C2=C(c3cn(C)c4cc(C)ccc34)C(=O)NC2=O)c1", "Glycogen synthase kinase-3 beta (Homo sapiens)", "middle"),
    ("Cn1cc(C2=C(Sc3ccccc3)C(=O)NC2=O)c2ccccc21", "Glycogen synthase kinase-3 beta (Homo sapiens)", "lowest"),
    ("Cn1cc(C2=C(Nc3ccccc3)C(=O)NC2=O)c2ccccc21", "Glycogen synthase kinase-3 beta (Homo sapiens)", "lowest"),
    ("COc1ccc(C2=C(c3cn(C)c4ccccc34)C(=O)NC2=O)c(OC)c1", "Glycogen synthase kinase-3 beta (Homo sapiens)", "highest"),
    ("Cn1cc(C2=C(c3cccc(N)c3)C(=O)NC2=O)c2ccccc21", "Glycogen synthase kinase-3 beta (Homo sapiens)", "highest"),
    ("COc1ccc(OC)c(C2=C(c3cn(C)c4ccccc34)C(=O)NC2=O)c1", "Glycogen synthase kinase-3 beta (Homo sapiens)", "middle"),
    ("Nc1nc(NCCNc2ncc(-c3ncc[nH]3)c(-c3ccc(Cl)cc3Cl)n2)ccc1[N+](=O)[O-]", "Glycogen synthase kinase-3 beta (Homo sapiens)", "highest"),
    ("Cn1cc(C2=C(c3cccc(NCC(O)CO)c3)C(=O)NC2=O)c2cc(Cl)ccc21 (racemic)", "Glycogen synthase kinase-3 beta (Homo sapiens)", "highest"),
    ("Cn1cc(C2=C(c3cccs3)C(=O)NC2=O)c2ccccc21", "Glycogen synthase kinase-3 beta (Homo sapiens)", "middle"),
    ("Cn1cc(C2=C(c3ccc(-c4ccccc4)cc3)C(=O)NC2=O)c2ccccc21", "Glycogen synthase kinase-3 beta (Homo sapiens)", "lowest"),
    ("COc1cccc(C2=C(c3cn(C)c4cc(F)ccc34)C(=O)NC2=O)c1", "Glycogen synthase kinase-3 beta (Homo sapiens)", "middle"),
    ("Cn1cc(C2=C(c3cccc(NCCCO)c3)C(=O)NC2=O)c2ccccc21", "Glycogen synthase kinase-3 beta (Homo sapiens)", "highest"),
]

Origin of the recorded values: ChEMBL document CHEMBL1154951
